System: HBV (HepG2.117 cell line, inducibly HBV producing)
experiment_notes: Anti-HBV activity: intracellular HBV DNA by real-time PCR in HepG2.117 cells after 3 days of treatment
Format: cell-based, hepatitis B virus
condition_context: Hepatitis B virus, HepG2.117, 72 h, HepG2.117 cells, 3 days of treatment, intracellular HBV DNA by real-time PCR; mean value; read-out: EC50 (μM, mean value)
Listed next: entries and their corresponding EC50.
endpoint_label: EC50

{"columns": ["entry_smiles", "assayed_target", "result"],
 "data": [
  ["COC(=O)C12CC(n3c(NC(C)C)nc4c(c3=O)C[C@@H](C)N(C(=O)c3ccc(Cl)c(Cl)c3)C4)(C1)C2", "HBV (HepG2.117 cell line, inducibly HBV producing)", "> 50 µM"],
  ["CC(C)Nc1nc2c(c(=O)n1-c1ccc(S(C)(=O)=O)cc1)CCN(C(=O)c1ccc3ncn(C)c3c1)C2", "HBV (HepG2.117 cell line, inducibly HBV producing)", "> 50 µM"],
  ["COc1ccc(CNc2nc3c(c(=O)n2-c2cccc(C(=O)O)c2)CCN(C(=O)c2ccc(Cl)c(Cl)c2)C3)cc1", "HBV (HepG2.117 cell line, inducibly HBV producing)", "> 50 µM"]
]}
